- method summary: chemical genetic growth profiling, strain panel (AID 1159580);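 note: tested at 20 µM; growth read once vehicle control cultures reached saturation at 30 °C; 1 = growth at the plate median or of vehicle wells; lower values mean less growth of the strain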
- condition notes: S. cerevisiae deletion strains, growth OD, locus YNL128W, strain TEP1, active compounds read low
The campaign covered roughly 5,500 compounds. About 2,000 (36%) were called active. About 18% were inconclusive and are not listed. This is one part of the list.
reported property: normalized growth
Just the number, please, no unit after it.

Query: Can you look up the measured normalized growth of COC(=O)Nc1nc2ccc(C(=O)c3ccccc3)cc2[nH]1 for me?
Reply: 1.01

Query: Would you kindly repeat that for O=S(=O)(CCN1CCOCC1)c1ccc(Cl)cc1 ?
Reply: 0.987

Query: Would you kindly repeat that for CC(C)(Oc1ccc(CCNC(=O)c2ccc(Cl)cc2)cc1)C(=O)O ?
Reply: 1.04

Query: Would you kindly repeat that for CCN(CC)c1ncnc2c1ncn2[C@@H]1O[C@H](COP(=O)(O)OP(=O)(O)C(Br)(Br)P(=O)(O)O)[C@@H](O)[C@H]1O ?
Reply: 1

Query: Would you kindly repeat that for Cc1cc(C(C)(C)C)c(O)c(C(C)(C)C)c1 ?
Reply: 0.874

Query: Would you kindly repeat that for CC(C)(Sc1cc(C(C)(C)C)c(O)c(C(C)(C)C)c1)Sc1cc(C(C)(C)C)c(O)c(C(C)(C)C)c1 ?
Reply: 1.03

Query: Would you kindly repeat that for CCNC(=O)C1OC(n2cnc3c(NCc4ccccc4)ncnc32)C(O)C1O (stereo not drawn) ?
Reply: 0.959

Query: Would you kindly repeat that for COc1ccc2[nH]cc(CCN)c2c1 ?
Reply: 0.975

Query: Would you kindly repeat that for N[C@H](C(=O)O)[C@@H]1CC(Cl)=NO1 ?
Reply: 0.29

* * *

- method summary: chemical genetic growth profiling, strain panel (AID 1159580);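 note: tested at 20 µM; growth read once vehicle control cultures reached saturation at 30 °C; 1 = growth at the plate median or of vehicle wells; lower values mean less growth of the strain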
- condition notes: S. cerevisiae deletion strains, growth OD, locus YPL051W, strain arl3, active compounds read low
Hit rate of the full screen: of about 5,500 compounds, about 2,000 (36%) were called active. Roughly 18% stayed inconclusive and do not appear here. The list shows a part of the results.
reported property: normalized growth
Just the number, please, no unit after it.

Study these solved cases before continuing.
NNc1nncc2ccccc12 ... 1
N=C(N)c1ccc(OCCCCCOc2ccc(C(=N)N)cc2)cc1 ... 0.98
COc1cc(C(=O)O[C@H]2CC[C@@]3(C)[C@@H]4CC[C@H]5[C@]6(O)C[C@H](O)[C@@]7(O)[C@@H](CN8C[C@@H](C)CC[C@H]8[C@@]7(C)O)[C@]6(O)C[C@@]53O[C@]24O)cc(OC)c1OC ... 0.998
CC1(C)CC[C@]2(C(=O)O)CC[C@]3(C)C(=CCC4[C@@]5(C)CC[C@@H](O)C(C)(C)C5CC[C@]43C)C2C1 (some centres not stated) ... 1
CO[C@@]12[C@@H]3NC3CN1C1=C(C(=O)C(N)=C(C)C1=O)[C@@H]2COC(N)=O (some centres not stated) ... 0.985

Now turn to the next molecule.
Query: Can you look up the measured normalized growth of CCOC(=O)OC(C)OC(=O)C1N2C(=O)C(NC(=O)[C@H](N)c3ccccc3)C2SC1(C)C (some centres not stated) for me?
Reply: 0.99

* * *

- method summary: chemical genetic growth profiling, strain panel (AID 1159580);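 note: tested at 20 µM; growth read once vehicle control cultures reached saturation at 30 °C; 1 = growth at the plate median or of vehicle wells; lower values mean less growth of the strain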
- condition notes: S. cerevisiae deletion strains, growth OD, locus YDL101C, strain DUN1, active compounds read low
In all, about 5,500 compounds went through this assay and about 2,000 (36%) were called active. About 18% were inconclusive and are not listed. Some of the results follow. Where a SMILES comes first, the peptide text is derived from it. Bridges are numbered along the chain shown (N, C = ends). [ ]: non-standard residue; d: D form. The star is where a group is joined. ξ: configuration not given here. ξDab(CH2SO3H) = NC(CCNCS(=O)(=O)O)C(=O)O; Heptanoyl(6-Me) = CC(C)CCCCC(=O)*; Dab = NCC[CH](N)C(=O)O
Recorded measurements of normalized growth, one per entry

Study these solved cases before continuing.
COc1ccc2[nH]cc(CCN)c2c1 ... 0.989 (inactive)
COC(=O)Nc1nc2ccc(C(=O)c3ccccc3)cc2[nH]1 ... 1.03 (inactive)
O=C(O/N=C\c1ccc2c(c1)OCO2)c1ccccc1Br ... 0.961 (inactive)
COC(=O)C1Cc2c([nH]c3ccccc23)C2(CCN(C)CC2)N1 (stereo not given) ... 0.995 (inactive)
COc1cc(C2OC(c3cc(C)ccc3[N+](=O)[O-])=NN2C(C)=O)cc(OC)c1OC (stereo not given) ... 1.04 (inactive)
Cc1noc(C)c1NC(N)=O ... 0.974 (inactive)
CCC(C)C1NC(=O)C(CCNCS(=O)(=O)O)NC(=O)C(NC(=O)C(CCNCS(=O)(=O)O)NC(=O)C(NC(=O)C(CCNCS(=O)(=O)O)NC(=O)CCCCC(C)C)C(C)O)CCNC(=O)C(C(C)O)NC(=O)C(CCNCS(=O)(=O)O)NC(=O)C(CCNCS(=O)(=O)O)NC(=O)C(C(C)CC)NC1=O (stereo not given) ({Heptanoyl(6-Me)}-[ξDab(CH2SO3H)]T[ξDab(CH2SO3H)][Dab][ξDab(CH2SO3H)]II[ξDab(CH2SO3H)][ξDab(CH2SO3H)]T; lactam 4-C; configuration not given here) ... 0.992 (inactive)
FC(F)(F)c1cccc(CSc2n[nH]c(=S)s2)c1 ... 0.522 (active)
COC(=O)c1cccc(NC(=O)CC2C(=O)NCCN2C(=O)c2cccs2)c1 (stereo not given) ... 1 (inactive)
CSc1n[nH]c(-c2cc(C(F)(F)F)cc(C(F)(F)F)c2)n1 ... 0.973 (inactive)

Query: Can you look up the measured normalized growth of S=c1[nH]nc(SCCSc2n[nH]c(=S)s2)s1 for me?
Reply: 0.947 (inactive)

Query: Would you kindly repeat that for CNC(=O)O/N=C\C(C)(C)SC ?
Reply: 1.01 (inactive)

Query: Would you kindly repeat that for CO[C@@]12[C@@H]3NC3CN1C1=C(C(=O)C(N)=C(C)C1=O)[C@@H]2COC(N)=O (stereo not given in full) ?
Reply: 1.01 (inactive)

Query: Would you kindly repeat that for O=C(O)c1ccc(N=Cc2ccc3c(c2)OCO3)cc1 ?
Reply: 0.983 (inactive)

Query: Would you kindly repeat that for N#Cc1c2ccccc2nc2ccccc12 ?
Reply: 0.832 (active)
